- experimentNotes: NCI Yeast Anticancer Drug Screen. Data for the mec2-1 strain (AID 157)
- protocolConditions: S. cerevisiae mec2-1 strain, at 50.0 µM, hits give high values
This is part of a sample that, as a whole, favours compounds with a hit. Of some 79,000 tested, about 15% had one in any assay.
reportedProperty: growth inhibition (%)
One number for each entry, in %.

Some solved cases for reference:
CCC1CCC(C)NC1 (configuration not stated) ... 2.75
O=c1cc(C(F)(F)F)[nH]c(=S)[nH]1 ... -5.05

For every record below, what is its growth inhibition?
1. CC12CCC3c4ccc(O)cc4CCC3C1CCC2=O (configuration not stated)
2. O=CNCCc1ccccc1
3. CC(C)=CCC[C@@H](C)[C@H]1CC[C@@]2(C)C3=C(CC[C@]12C)[C@@]1(C)CC[C@H](O)C(C)(C)[C@@H]1CC3
4. S=CN1CCCCC1
5. COc1cc(C(=O)O)c(O)c(C(C)(C)C)c1
6. Cc1ccc(NC(=O)c2ccccc2Cl)cc1

### Response
1: -11.8; 2: -9.05; 3: -24.8; 4: -16.2; 5: 4.25; 6: -4.35

For every record below, what is its growth inhibition?
1. C=C(C)[C@@H]1CC[C@]2(CO)CC[C@]3(C)[C@H](CC[C@@H]4[C@@]5(C)CC[C@H](O)C(C)(C)[C@@H]5CC[C@]43C)[C@@H]12
2. OCC1OC(n2ccc3c2ncn2ncnc32)C(O)C1O (configuration not stated)
3. NC(=O)N1CCOCC1
4. COc1ccc(C2CC(c3ccccc3)=Nc3ccccc3S2)cc1 (configuration not stated)

### Response
-4.3
3.45
-7.9
-17.9
